Entry source: patent US20090291081A1

Biological target: T1, human IL-1α (human, UniProt P01583 113-271)
T1 construct: also called IL-1alpha; hIL-1α
T1 sequence (looked up): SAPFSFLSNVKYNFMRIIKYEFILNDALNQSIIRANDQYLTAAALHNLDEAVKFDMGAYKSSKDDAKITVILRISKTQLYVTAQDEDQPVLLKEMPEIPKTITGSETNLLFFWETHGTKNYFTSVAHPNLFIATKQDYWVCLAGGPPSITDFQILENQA
Assay: Table 60 heading; dAbs from selection on antigen
Quantity Kind: binding result

ABT1-122-508 (other, VK dAb) VL: DIQMTQSPSSLSASVGDRVTITCRASQPIWTELNWYQQKPGKAPKLLIYGSSSLQRGVPSRFSGSGSGTDFTLTISSLQPEDFATYYCQQFAYFPATFGQGTKVEIKR = binds
ABT1-207 (other, VH dAb) VH: EVQLLESGGGLIQPGGSLRLSCAASGFTFGRYYMSWVRQAPGKGLEWVSSIDYLGTNTYYADSVKGRFTISRDNSKNTLYLQMNSLRAEDTAVYYCAKLTRIRPPNFDYWGQGTLVTVSS = binds
ABT1-122-556 (other, VK dAb) VL: DIQMTQSPSSLSASVGDRVTITCRASQPIWTELNWYQQKPGKAPKLLIYGSSSLQSGVPSRFSGSGSGTDFTLTISSLQPEDFATYHCQQFAYFPATFGQGTKVEIKR = binds
ABT1-122-750MH (other, VK dAb) VL: DIQMTQSPSSLSASVGDRVTITCSASQHIWTEMSWYQQKPGKAPKLLIYGSASRQKGVPSRFSGSGSGTDFTLTISSLQPEDFATYHCKQFAYFPNTFGQGTKVEIKR = binds
